biological target: hemagglutinin (HA) of influenza virus H5N1 A/Vietnam/1194/04 (influenza A virus); assay: cell-based or functional assay
endpoint.label: average neutralization titer (nM)
Give the value, in units of nM, as a plain number.

Input: Which value of average neutralization titer has been reported for MD2308 (bispecific antibody) EVQLVESGGGLVQAGDSLRISCAASGRTLSIYSMGWFRQAPGKEREFVATIGWNSGRTFYPDSLKGRFTISRDNARNTLYLQMNNLRPEDTAVYYCAAAKGPLRLSSQADYWGQGTQVTVSSGGGGSGGGGSEVQLVESGGGLVQPGGSLRLSCAATGFTLENKAIGWFRQTPGSEREGVLCISKSGSWTYYTDSMRGRFTISRDNAENTVYLQMDSLKPEDTAVYYCATTTAGGGLCWDGTTFSRLASSWGQGTQVTVSSGGGGSGGGGSEVQLVESGGGLVQAGDSLRLSCAASGPTFGMSAMGWFRQAPGKEREFVAAISGLGNPNYSDDVKGRFTISRENGRNTVYLQMNSLKPEDTAVYYCAQRKVYHVQGGDRPQAYDYWGQGTQVTVSS in the records?
Output: 21.6
